Measured GI50 values are reported for all entries that follow.
Tested on: IGROV-1
Assay: NCI tumour cell line growth inhibition, 48 h
The source made the active and inactive calls. Rule as the data show it: active = GI50 up to about 1.1 µM and inactive = higher.

{"Compound": "COC(=O)c1c2n(c3ccccc13)C[C@H]1OC(C)(C)O[C@@H]21", "GI50": "> 100 µM (inactive)"}
{"Compound": "S=C(N/N=C(\\C(=N/NC(=S)N1CCCCC1)c1ccccn1)c1ccccn1)N1CCCCC1", "GI50": "48.8 µM (inactive)"}
{"Compound": "O=C(O)C1C2CCC(O2)C1C(=O)N1CCCCC1 (stereo not given)", "GI50": "30.5 µM (inactive)"}

Req: Give its GI50 value. Item: "COc1ccc(/C=C/c2cnccn2)cc1OC"
Resp: > 10 µM (inactive)

Req: Look up GI50: "O=S(=O)(Nc1nccs1)c1ccc([As](=O)(O)O)cc1"
Resp: > 100 µM (inactive)

Req: Item under review: CCOC(=O)c1cc2c3c(c(C(C)=O)c(O)c2[nH]1)N(CC(C)CC)CC3 (stereo not given) . Reported GI50?
Resp: > 100 µM (inactive)

Req: Looking for the measured GI50 of "COc1ccccc1/N=N/C(C(=O)c1ccccc1)C(=O)c1ccccc1" , can you help?
Resp: 27 µM (inactive)

Req: Could you share which GI50 value was measured for COc1cccc(C2c3cc4c(cc3OC(N3CCCC3)C2C)OCO4)c1OC (stereo not given) ?
Resp: 2.78 µM (inactive)

Req: Endpoint output: GI50 of CC(=O)OC1COC(Nc2nc(NCc3ccccc3)n(C)c(=O)c2N=O)C(OC(C)=O)C1OC(C)=O (stereo not given) . Value?
Resp: > 10 µM (inactive)

Req: Record request: GI50 value, item CCC12C=CCN3CCC4(C(=C(C(=O)OC)C1)Nc1ccccc14)[C@H]32 (stereo not given in full)
Resp: 39.1 µM (inactive)

====

// values below are reported GI50
System: SF-295
Assay: NCI tumour cell line growth inhibition, 48 h
Active and inactive are the calls of the source. Cut-off read from the data, not from the text of the source: active = GI50 up to about 1.1 µM and inactive = higher.

Examples with answers:
{"Compound": "COC(=O)C1=C(C(=O)OC)C2OC1C1C2C2(C)C(C)=C(C)C1(C)[S+]2[O-] (stereo not drawn)", "Target Or Test System": "SF-295", "Result": "28.4 µM (inactive)"}
{"Compound": "CC1=CC(c2ccccc2)n2c(nc3cc4ccccc4cc32)N1 (stereo not drawn)", "Target Or Test System": "SF-295", "Result": "> 100 µM (inactive)"}

Req: For "O=C(O)c1ccc(S(=O)(=O)c2ccccc2)c([N+](=O)[O-])c1" , what is its reported GI50?
Resp: > 100 µM (inactive)

Req: Any idea what GI50 was measured for "COC(=O)c1c2n(c3ccccc13)C[C@H]1OC(C)(C)O[C@@H]21" ?
Resp: > 100 µM (inactive)

Req: Quick one: GI50 for COC(=O)C1=C(C)N(NC(=O)c2cccc(Cl)c2)C(C)(O)C12CCOC2=O (stereo not drawn) ?
Resp: > 100 µM (inactive)

Req: GI50 lookup needed for CCOC(=O)c1cc2c3c(c(C(C)=O)c(O)c2[nH]1)N(CC(C)CC)CC3 (stereo not drawn) , thanks.
Resp: 45 µM (inactive)

Req: Given the entry "Cc1cc(-c2nc3ccc(F)cc3s2)ccc1NC(=O)[C@H](C)N" , report its measured GI50.
Resp: 9.71 µM (inactive)

Req: # query: GI50 of entry "Cc1cc(C)n(C(=O)CSc2nnc(SCC(=O)n3nc(C)cc3C)s2)n1"
Resp: > 100 µM (inactive)

Req: Dear colleague, I am looking for the recorded GI50 of the following compound: COc1ccccc1/C=C1\CCC(CN(C)C)C1=O (stereo not drawn)
Resp: 15.2 µM (inactive)

Req: Sample "CCOC(=O)NC(=O)c1cn(CCOC(=O)CCCCCCCCC(=O)OCCn2cc(C(=O)NC(=O)OCC)c(=O)[nH]c2=O)c(=O)[nH]c1=O" — what was its GI50?
Resp: > 100 µM (inactive)

Req: Any idea what GI50 was measured for "O=C(NC/C(Cl)=C/Cl)Nc1cccc2c1CCCC2" ?
Resp: > 100 µM (inactive)

Req: Quick one: GI50 of "CCOc1ccc(/N=C(/NC(=O)c2ccccc2)SC)cc1" ?
Resp: > 100 µM (inactive)

Req: Please look up its GI50: O=C(O)C(C(=O)O)P(=S)(S)c1ccccc1 (stereo not drawn)
Resp: > 100 µM (inactive)

Req: Please give the measured GI50 for this compound: "Oc1cc(C2OCCCO2)cc(O)c1O"
Resp: > 100 µM (inactive)

Req: # GI50 lookup, item CCCCCCC(/C=N/O)C(C)(O)CCC (stereo not drawn)
Resp: > 100 µM (inactive)

====

Tested on: CAKI-1
Assay: NCI tumour cell line growth inhibition, 48 h
Calls of active or inactive are those of the source. Cut-off read from the data, not from the text of the source: active = GI50 up to about 1.1 µM and inactive = higher.
Endpoint Label: GI50

Consider the worked cases shown below.
{"Molecule": "CCOC(=O)/C=C(/C(=O)OCC)n1ccc(=O)n(Cc2cnnn2CCCCOC(C)=O)c1=O", "Target Or Test System": "CAKI-1", "Endpoint Label": "GI50", "Result": "30.2 µM (inactive)"}
{"Molecule": "COc1ccc(-c2onc(-c3c(C)cc(C)cc3C)c2C2=NCCCN2)cc1", "Target Or Test System": "CAKI-1", "Endpoint Label": "GI50", "Result": "13.6 µM (inactive)"}
{"Molecule": "N/C(=N\\O)NCCN1CCCCCCC1", "Target Or Test System": "CAKI-1", "Endpoint Label": "GI50", "Result": "> 100 µM (inactive)"}
{"Molecule": "COc1ccc(-c2c(C#N)c(=O)nc(SC)n2C2OCC(OC(C)=O)C(OC(C)=O)C2OC(C)=O)cc1 (centres undefined)", "Target Or Test System": "CAKI-1", "Endpoint Label": "GI50", "Result": "> 100 µM (inactive)"}

Req: Requested field: GI50. Item: "CCOC(=O)C1=C(Nc2ccc(Br)cc2)OC/C1=N\NC(=O)c1ccccc1O"
Resp: 6.49 µM (inactive)

Req: Reported GI50, molecule N#CC(c1ccccc1)N(CCCCCCN(C(=O)c1ccccc1)C(C#N)c1ccccc1)C(=O)c1ccccc1 (centres undefined) : ____
Resp: 32.1 µM (inactive)

====

System: OVCAR-5
Test: NCI tumour cell line growth inhibition, 48 h
Active and inactive are the calls of the source. Cut-off read from the data, not from the text of the source: active = GI50 up to about 1.1 µM and inactive = higher.
Measured GI50 of individual entries

{"Molecule": "N#Cc1c2ccc([N+](=O)[O-])cc2c(=O)n2c1[nH]c1ccc(C(F)(F)F)cc12", "Target Or Test System": "OVCAR-5", "GI50": "14.3 µM (inactive)"}

Req: Quick one: GI50 of "Cn1ccc(C(=O)NCCN(CCNC(=O)c2ccn(C)c(=O)c2O)CCNC(=O)c2cccc(=O)n2O)c(O)c1=O" ?
Resp: > 100 µM (inactive)

Req: So what's the measured GI50 for this one? "Oc1cc(C2OCCCO2)cc(O)c1O"
Resp: > 100 µM (inactive)

Req: Item under review: "CCN(CC)CCN(C(=O)c1ccc(F)cc1)c1ccccc1N" . Reported GI50?
Resp: > 10 µM (inactive)

Req: Using the record for "Cc1cc(C)n(C(=O)CSc2nnc(SCC(=O)n3nc(C)cc3C)s2)n1" , report its GI50.
Resp: > 100 µM (inactive)

Req: I'd like to know its GI50. The molecule in question is "CC1=NN2C(=O)CC(=O)N=C2S1"
Resp: > 100 µM (inactive)

Req: Give its GI50 value. Item: "Cc1c(C)c2c(c(N)c1C#N)C(=O)N(OS(=O)(=O)c1ccccc1)C2=O"
Resp: > 100 µM (inactive)

Req: // query GI50 value for entry "COc1ccc(CC(=O)NCCc2ccc(OC)c(OC)c2OC)cc1"
Resp: > 100 µM (inactive)

====

Tested on: UO-31
Assay: NCI tumour cell line growth inhibition, 48 h
Calls of active or inactive are those of the source. Rule as the data show it: active = GI50 up to about 1.1 µM and inactive = higher.
Pick one: active, inactive

# example entries with known answers
{"Compound": "ClC1(Cl)C(c2ccccc2)C1c1ccccc1 (stereo not drawn)", "Qualitative Label": "inactive"}
{"Compound": "COP1(=O)NCc2ncccc2O1 (stereo not drawn)", "Qualitative Label": "inactive"}
{"Compound": "Cc1cc(C)n(C(=O)CSc2nnc(SCC(=O)n3nc(C)cc3C)s2)n1", "Qualitative Label": "inactive"}

Req: Lab log entry: COC1(OC)CC2C(=O)N(Cc3ccccc3)C1CC2S(=O)(=O)c1ccccc1 (stereo not drawn) — outcome as called in the assay?
Resp: inactive

Req: Write down the call the test reported for this compound. Item: "CC(=O)OCCCCn1cnc2nc(Nc3ccccc3)nc(Cl)c21"
Resp: inactive

Req: Please share the test call associated with "COc1ccc(/C=C/c2cc(OC)c(OC)c(OC)c2)cc1O" .
Resp: inactive

Req: Answer briefly: the call reported for O=C(NC1C=Nc2ccccc2NC1=O)c1ccccc1Cl (stereo not drawn) in this assay.
Resp: inactive

Req: Just curious, what result did "O=C(NCCC1([N+](=O)[O-])CCN(C(=O)c2ccccc2)CC1)c1ccccc1" get here?
Resp: inactive
